# System: M14
# assay_name: NCI tumour cell line growth inhibition, 48 h
Calls of active or inactive are those of the source. Cut-off read from the data, not from the text of the source: active = GI50 up to about 1.1 µM and inactive = higher.
Your answer must be one of the following: active, inactive

**Q:** I'd appreciate the recorded outcome for COc1ccc(/N=N/C(=O)NC(CC(C)C)C(N)=O)cc1 (stereo unspecified) from this test.
**A:** inactive

**Q:** I'd appreciate the recorded outcome for `Cc1ccc(C(=O)/C=C(\O)C(=O)NN=C(c2ccccc2)c2ccccc2)cc1` from this test.
**A:** inactive

**Q:** I'd appreciate the recorded outcome for `CCOC(=O)c1ccc(Nc2nc3ccccc3nc2C(=O)OCC)cc1` from this test.
**A:** inactive

**Q:** I'd appreciate the recorded outcome for `N#C/C(N)=C(C#N)/N=C/Nc1ccc(N)cc1` from this test.
**A:** inactive

**Q:** I'd appreciate the recorded outcome for CCCCCCCCCCC(C)CCCCCCC(=O)OCC(COP(=O)([O-])OCC[N+](C)(C)C)OC(=O)CCCCCCC(C)CCCCCCCCCC (stereo unspecified) from this test.
**A:** inactive

**Q:** I'd appreciate the recorded outcome for `O=c1[nH]cnc2c(COCCCO)c[nH]c12` from this test.
**A:** inactive

**Q:** I'd appreciate the recorded outcome for `CCCCCCCCCc1c(O)c(O)c(CCCCCCCCC)c(CCCCCCCCC)c1CCCCCCCCC` from this test.
**A:** inactive

**Q:** I'd appreciate the recorded outcome for `NS(=O)(=O)c1cc2c(cc1Cl)N=C(CCC(=O)O)NS2(=O)=O` from this test.
**A:** inactive

**Q:** I'd appreciate the recorded outcome for COC(=O)C1CC(C(=O)OC)c2nc3cc(C)ccc3nc21 (stereo unspecified) from this test.
**A:** inactive

**Q:** I'd appreciate the recorded outcome for CSc1nc(NC2OC(COC(C)=O)C(OC(C)=O)C(OC(C)=O)C2OC(C)=O)c(/N=C(\C)C(C)=O)c(=O)n1C (stereo unspecified) from this test.
**A:** inactive

**Q:** I'd appreciate the recorded outcome for `Nc1nc(-c2ccc3ccccc3c2)cc(-c2cc(-c3ccc4ccccc4c3)nc(N)n2)n1` from this test.
**A:** inactive

**Q:** I'd appreciate the recorded outcome for `Cc1cc2ccccc2c[n+]1CC(O)C[n+]1cc2ccccc2cc1C` from this test.
**A:** inactive

**Q:** I'd appreciate the recorded outcome for O=c1/c(=C\c2ccccc2)sc2n1C(c1ccccc1)C1(O)CCCCC1N=2 (stereo unspecified) from this test.
**A:** inactive

**Q:** I'd appreciate the recorded outcome for `CCOC(=O)CC[C@H](NC(=O)[C@H](N)Cc1ccc(N(CCCl)CCCl)cc1)C(=O)OCC` from this test.
**A:** inactive

**Q:** I'd appreciate the recorded outcome for `O=C1c2ccccc2C(=O)c2nc3ccc(Cl)cc3cc21` from this test.
**A:** inactive

**Q:** I'd appreciate the recorded outcome for `CCSC1=N/C(=C\c2ccco2)C(Cl)=N1` from this test.
**A:** inactive

**Q:** I'd appreciate the recorded outcome for `Cn1c(=O)c2[nH]c(/N=N/N3CCN(CCO)CC3)nc2n(C)c1=O` from this test.
**A:** inactive

**Q:** I'd appreciate the recorded outcome for O=C(O)C12C3CCC(C3)C1(C(=O)O)C1CCC2C1 (stereo unspecified) from this test.
**A:** inactive

**Q:** I'd appreciate the recorded outcome for COc1cc(C2c3cc4c(cc3OC(NC3CCCCC3)C2C)OCO4)cc(OC)c1OC (stereo unspecified) from this test.
**A:** active

**Q:** I'd appreciate the recorded outcome for N=C(N)NCC(N)C(=O)O (stereo unspecified) from this test.
**A:** inactive

**Q:** I'd appreciate the recorded outcome for `Clc1cccc(/C=c2\nc(-c3ccccc3)n3c2nc2ccccc23)c1` from this test.
**A:** inactive

**Q:** I'd appreciate the recorded outcome for COC(=O)C1=CO[C@@H](OC2OC(CO)C(O)C(O)C2O)[C@@H]2[C@H](C)[C@@H](O)[C@@H](O)[C@]12O (stereo partly specified) from this test.
**A:** inactive

**Q:** I'd appreciate the recorded outcome for `O=Cc1cc(O)ccc1Br` from this test.
**A:** inactive

**Q:** I'd appreciate the recorded outcome for NC(=O)N/N=C(\CC1OC(=O)c2ccccc21)c1ccco1 (stereo unspecified) from this test.
**A:** inactive

**Q:** I'd appreciate the recorded outcome for COc1ccc(CC2COc3cc(O)cc(O)c3C2=O)cc1O (stereo unspecified) from this test.
**A:** inactive

**Q:** I'd appreciate the recorded outcome for COC(=O)C1=Cc2cc(OC)c(OC)cc2[C@H](c2ccc(OC)c(OC)c2)C1C(=O)OC (stereo partly specified) from this test.
**A:** inactive

**Q:** I'd appreciate the recorded outcome for `O=C(O)C(=C\c1ccc2c(c1)OCO2)/C(=C/c1ccc2c(c1)OCO2)C(=O)O` from this test.
**A:** inactive

**Q:** I'd appreciate the recorded outcome for `Cc1ccc(O)c(C(c2ccc([N+](=O)[O-])cc2)c2cc(C)ccc2O)c1` from this test.
**A:** inactive

**Q:** I'd appreciate the recorded outcome for `OC(c1ccc2c(c1)OCO2)c1ccc2c(c1)OCO2` from this test.
**A:** inactive

**Q:** I'd appreciate the recorded outcome for `Cc1c(Cl)cc(C(C)(C)C)c(O)c1Cc1c(C)c(Cl)cc(C(C)(C)C)c1O` from this test.
**A:** inactive

**Q:** I'd appreciate the recorded outcome for `O=C(N/C(=C\c1ccc(Oc2ccc(Cl)c(Cl)c2)cc1)c1nc2ccccc2[nH]1)c1ccccc1` from this test.
**A:** inactive

**Q:** I'd appreciate the recorded outcome for COC(=O)C(C(=O)C(=O)Nc1nc2ccc([N+](=O)[O-])cc2s1)c1nc2ccc(Cl)cc2nc1O (stereo unspecified) from this test.
**A:** inactive

**Q:** I'd appreciate the recorded outcome for `O=C1c2ccccc2C(=O)c2[nH]c(=O)c(/C=N/Nc3ccc([N+](=O)[O-])cc3)nc21` from this test.
**A:** inactive

**Q:** I'd appreciate the recorded outcome for `CC(C)(C)OC(=O)N1CCC2(CC1)C(=O)NCN2c1ccccc1` from this test.
**A:** inactive

**Q:** I'd appreciate the recorded outcome for CC1(C)OC2OC(COC(=O)C(c3ccccc3)c3ccccc3)C3OC(C)(C)OC3C2O1 (stereo unspecified) from this test.
**A:** inactive

**Q:** I'd appreciate the recorded outcome for O=c1oc(-c2ccc(O)c(O)c2)cc2cccc(O)c12 [THUNBERGINOL A] from this test.
**A:** inactive

**Q:** I'd appreciate the recorded outcome for `C[C@]12CC[C@H](O)C=C1CC[C@@H]1[C@@H]2CC[C@]2(C)C(=N/O)/C(=C/c3ccncc3)C[C@@H]12` from this test.
**A:** inactive

**Q:** I'd appreciate the recorded outcome for COc1ccc(C2CC(c3c(O)ccc4ccccc34)=NN2c2ccc([N+](=O)[O-])cc2[N+](=O)[O-])cc1OC (stereo unspecified) from this test.
**A:** inactive

**Q:** I'd appreciate the recorded outcome for `COc1cc(C2(C)SCCCS2)cc(OC)c1OC` from this test.
**A:** inactive

**Q:** I'd appreciate the recorded outcome for `Cc1n2nc(N)sc2n[n+]1Cc1ccccc1` from this test.
**A:** inactive

**Q:** I'd appreciate the recorded outcome for `O=c1oc(-c2ccccc2)cn1-c1ccccc1` from this test.
**A:** inactive
